target: UniProt P29275
Sequence (P29275 whole entry): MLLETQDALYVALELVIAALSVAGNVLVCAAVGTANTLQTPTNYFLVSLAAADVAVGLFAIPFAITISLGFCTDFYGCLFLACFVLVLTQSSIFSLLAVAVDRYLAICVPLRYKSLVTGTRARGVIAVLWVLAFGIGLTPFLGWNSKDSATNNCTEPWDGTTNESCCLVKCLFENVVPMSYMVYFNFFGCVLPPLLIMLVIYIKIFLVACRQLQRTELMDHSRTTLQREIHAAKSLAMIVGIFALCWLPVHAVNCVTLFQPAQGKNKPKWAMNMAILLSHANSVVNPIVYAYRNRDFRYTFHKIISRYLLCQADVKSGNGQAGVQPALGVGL
test_name: Antagonist activity human adenosine A2B receptor expressed in CHO cells assessed as inhibition of NECA-mediated [3H]cAMP accumulation at =<5000 nM after 150 mins by scintillation counter
Format: functional, cell-based
measured_quantity: inhibition (%)
State just the number; it will be interpreted in %.

query: Need inhibition of C=CCN1C(=O)N2CC(CC)N=C2c2[nH]c(-c3cc(OC)no3)nc21 (racemic) , thanks.
result: 25

query: Need inhibition of C=CCN1C(=O)N2CC(CC)N=C2c2[nH]c(-c3cc(OCc4ccccc4)nn3C)nc21 (racemic) , thanks.
result: 14

query: Need inhibition of Cc1cc(-c2nc3c([nH]2)C2=NC(C)CN2C(=O)N3Cc2ccccc2)nn1C (stereo not drawn) , thanks.
result: 24
